# System: PC-3
# procedure.details: NCI tumour cell line growth inhibition, 48 h
The source made the active and inactive calls. Cut-off read from the data, not from the text of the source: active = GI50 up to about 1.1 µM and inactive = higher.
Overview of reported GI50 across a group of compounds:

Qu. # return GI50 of O=C(CC1(O)CCCCC1)OC1CCCC1 (system: PC-3)
Ans. > 100 µM (inactive)

----------
# Test system: SW-620
# procedure.details: NCI tumour cell line growth inhibition, 48 h
Calls of active or inactive are those of the source. No stated cut-off is given here; in the data, active = GI50 up to about 1.1 µM and inactive = higher.
endpoint.label: GI50

molecule | target | value
Cn1c2ccccc2n2c(=O)c3cccnc3c(C#N)c12 | SW-620 | 19.6 µM (inactive)
O=[N+]([O-])c1cc(Cl)ccc1S(=O)(=O)N1CCCc2cc(Cl)ccc21 | SW-620 | > 100 µM (inactive)
Cc1cc2[nH]c3c(C#N)c(-c4ccccc4)c(CN4CCOCC4)c(=O)n3c2cc1C | SW-620 | > 100 µM (inactive)

Qu. Tell me its GI50 given COc1ccc(OC)c(NC(=O)C(=O)NNC(=O)c2sc(NNC(C)=O)nc2C)c1 as the entry.
Ans. 22.6 µM (inactive)

Qu. Tell me its GI50 given O=[N+]([O-])C(/C=C(\Cl)[N+](=O)[O-])=C(Nc1ccccc1)Nc1ccccc1 as the entry.
Ans. 2.79 µM (inactive)

Qu. Tell me its GI50 given c1ccc(/C(=N/Nc2ccncn2)c2ccccn2)cc1 as the entry.
Ans. 6.32 µM (inactive)

Qu. Tell me its GI50 given COC(=O)c1c(O)ccc2c1c1c(n2CCc2ccccc2)C(=O)c2ccccc2C1=O as the entry.
Ans. 13.2 µM (inactive)

Qu. Tell me its GI50 given CC#CC1C2CCCC1(CSc1ccccc1)NC(=O)O2 (stereo unspecified) as the entry.
Ans. > 100 µM (inactive)

Qu. Tell me its GI50 given COc1ccc2cc(NC(=O)N/N=C\c3ccc(Cl)cc3)ccc2c1 as the entry.
Ans. > 100 µM (inactive)
